target-desc: T1, KSRP KH23 (KH2-KH3 di-domain) (Homo sapiens, UniProt Q92945 233-418)
T1 sequence: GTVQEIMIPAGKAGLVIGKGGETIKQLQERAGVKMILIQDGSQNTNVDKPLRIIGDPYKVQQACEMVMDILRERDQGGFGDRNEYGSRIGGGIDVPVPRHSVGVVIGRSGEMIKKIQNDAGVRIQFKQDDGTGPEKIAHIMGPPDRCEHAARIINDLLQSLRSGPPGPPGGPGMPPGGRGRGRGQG
test-summary: CD titration
measurement-label: Kd (nM)

- UAUUUAUUAUUU (ssRNA) [TNFa ARE AU-12mer]: 1000
